- SYSTEM_UNDER_TEST: mouse PD-1/PD-L1 interaction (mPD-L1 protein) (Mus musculus, UniProt Q9EP73)
- Construct: purchased G&P Biosciences FCL3502B (PD-L1)
- Sequence (Q9EP73 19-239 limits assumed): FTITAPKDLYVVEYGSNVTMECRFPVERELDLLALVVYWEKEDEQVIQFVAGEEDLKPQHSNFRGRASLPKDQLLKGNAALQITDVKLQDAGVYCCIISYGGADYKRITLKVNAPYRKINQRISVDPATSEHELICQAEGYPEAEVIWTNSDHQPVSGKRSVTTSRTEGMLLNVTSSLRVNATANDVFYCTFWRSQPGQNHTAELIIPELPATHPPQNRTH
- PROTOCOL_DETAILS: Blockade of the mouse PD-1/PD-L1 interaction, mouse PD-L1 protein
- Type: biochemical
No end group written: not given here.
OBSERVABLE: IC50 (nM)
Could you give me the number in nM? Just the number is fine.

## Task Requested read-out: IC50. Entry: WHRSYYTWNLNT [CLP002]
## Result 1910

====

- SYSTEM_UNDER_TEST: PD-1/PD-L1 interaction on DU-145 cells (Homo sapiens)
- Construct: when the plate was coated with DU-145 cells; endogenous in cells; host or cells: DU-145
- Sequence (Q9NZQ7 19-290): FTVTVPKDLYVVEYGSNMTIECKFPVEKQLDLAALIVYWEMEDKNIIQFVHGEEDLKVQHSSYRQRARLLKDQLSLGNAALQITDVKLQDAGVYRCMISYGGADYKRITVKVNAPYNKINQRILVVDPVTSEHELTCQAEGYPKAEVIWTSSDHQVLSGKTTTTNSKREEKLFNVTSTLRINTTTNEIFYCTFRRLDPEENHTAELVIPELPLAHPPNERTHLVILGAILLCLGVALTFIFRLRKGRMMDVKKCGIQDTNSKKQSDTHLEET
- PROTOCOL_DETAILS: Blockade of the PD-1/PD-L1 interaction, plate coated with DU-145 cells
- Assay type: cell-based
No end group written: not given here.
OBSERVABLE: pIC50
Quick note: pIC50 means taking -log10 of the concentration in moles per liter.

## Task Requested read-out: pIC50. Entry: WHRSYYTWNLNT [CLP002]
## Result 5.84

====

- SYSTEM_UNDER_TEST: recombinant human PD-L1 ECD protein (Homo sapiens, UniProt Q9NZQ7)
- Construct: the recombinant human PD-L1 ECD protein were evaluated using SPR; purchased G&P Biosciences FCL0784B
- PROTOCOL_DETAILS: SPR binding to human PD-L1
- RUN_PARAMETERS: read-out: Ka
No end group written: not given here.
OBSERVABLE: kon
Give the value; after it, write the unit.

## Task Requested read-out: kon. Entry: WHRSYYTWNLNT [CLP002]
## Result 4520 M⁻¹ s⁻¹

## Task Requested read-out: kon. Entry: DYHDPSLPTLRK [CLP004]
## Result 5140 M⁻¹ s⁻¹

## Task Requested read-out: kon. Entry: HYPFRPHANQAS [CLP001]
## Result 5190 M⁻¹ s⁻¹

## Task Requested read-out: kon. Entry: WHFSYNWRWLPP [CLP003]
## Result 22600 M⁻¹ s⁻¹

Source of measurements: paper PMC6805442
